Reference source: PubChem BioAssay

assay: viability loss with induced miR-34 in A549 – imaging, A549 dox-inducible miR-34, nuclei and caspase counts, primary screen (AID 1347080); settings: A549 miR-34 inducible, Hoechst nuclei count, 48 h; measured here: total cells without miR-34 induction
Kindly supply the reported cell count values for the records listed here.

Qu. Would you mind telling me what cell count value was observed for `CCN(CC)C(=O)CCC/C=C\C[C@@H]1[C@@H](/C=C/[C@@H](O)CCc2ccccc2)[C@H](O)C[C@@H]1O` ?
Ans. 6020

Qu. Request: `C#CCCC[C@@H](O)CCCCCCCCCCC(=O)O`
Ans. 5890

Qu. Similarly, `Cc1cc(C)cc(C(=O)N(C)[C@H](Cc2ccc(-c3ccccc3)cc2)C(=O)N[C@@H](Cc2c[nH]c3ccccc23)C(=O)O)c1` ?
Ans. 10100

Qu. Please answer likewise for `O=C(c1cccs1)c1ccc(OCCCO)c(Cl)c1Cl`
Ans. 6270

Qu. Follow-up item: `COc1ccccc1N1CCN(CCN2C(=O)c3ccccc3C(C)(C)C2=O)CC1`
Ans. 7320

Qu. Would you mind doing CC#CCC(C)[C@H](O)/C=C/[C@@H]1[C@H]2C/C(=C\CCCC(=O)O)C[C@H]2C[C@H]1O (some centres undefined) as well?
Ans. 6220

Qu. Here is the next molecule: `N[C@H](C(=O)O)c1ccc(C(=O)O)c(C(=O)O)c1`
Ans. 10000

Qu. Another molecule: `CC(C)Oc1ccc(C(=O)c2ccc(NC3=NCCN3)cc2)cc1`
Ans. 5650

Qu. Moving on to `CC(C)[C@H]1c2ccc(F)cc2CC[C@@]1(CCN(C)CCCc1nc2ccccc2[nH]1)OC(=O)C1CC1`
Ans. 332

Qu. Ok, now `CCCCC[C@H](O)/C=C/[C@H]1C(=O)C[C@H](O)[C@@H]1CCCCCCCO`
Ans. 5120

Qu. Follow-up entry: `CCCc1cc(C(=O)c2ccc(-c3ccccc3)cc2)ccc1OCCCN1CCCc2c(OC(C)(C)C(=O)O)cccc21`
Ans. 6540

Qu. Param item: `c1ccc(-c2n[nH]c3c2oc2ccccc23)cc1`
Ans. 7320

Qu. Also, c1ccc(C2NNCC2c2ccnc3ccccc23)nc1 (centres undefined) please.
Ans. 9570

Qu. Similarly, `CCCCC[C@H](O)CC[C@@H]1[C@H]2Cc3cccc(OCC(=O)O)c3C[C@H]2C[C@H]1O` ?
Ans. 6530

###

For each record, write down the corresponding viability.
assay: drug combination growth inhibition, ovarian cancer – cell-based, oncology-focused library, rucaparib conditional, profiling panel (AID 1508598); details: patient-derived ovarian cancer cells, CellTiter-Glo viability, 144 h; at 0.0195 µM; OCI-C5x cells; without rucaparib; stronger effect = lower value
Lab book: enter the figure in %, no units written.

Qu. // lookup viability for `CCn1c(-c2nonc2N)nc2c(C#CC(C)(C)O)ncc(OC[C@H]3CCCNC3)c21`
Ans. 125

Qu. Also check `Nc1ccc(-c2ccc3ncc4ccc(=O)n(-c5cccc(C(F)(F)F)c5)c4c3c2)cn1`
Ans. 72

Qu. Same question, `CCC[C@H](Nc1nc(-c2ccc(NC(=O)NCC)c(OC)c2)ncc1C)c1cccnc1` this time
Ans. 30.6

###

test: viability loss in pontine glioma line – cell-based, JHH-DIPG-1, MIPE4.0, CellTiter-Glo, qHTS, dose response (AID 1347062); conditions: JHH-DIPG-1 viability, CellTiter-Glo ATP luminescence;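 as to AC50: cells exposed to compound for two days before readout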
Results filed as inconclusive are left out. Active and inactive are the calls of the source. Cut-off not given; nearly all actives show AC50 up to about 27 µM.
Could you please pick one outcome from this set? active, inactive

Qu. Call for entry `Cc1ccc(S(=O)(=O)OCC(=O)Nc2ccc(C(=O)O)c(O)c2)cc1` :
Ans. inactive

Qu. And then `Cc1ccc(C(=O)Nc2cccc(C(F)(F)F)c2)cc1Nc1nc(-c2cccnc2)nc2c1cnn2C` , what is it?
Ans. active

Qu. One more molecule: CCNc1cc(NC2CCC(O)CC2)nc(Nc2ccc3c(ccn3Cc3ccccc3)c2)n1 (stereo not given)
Ans. active

Qu. `CCn1nnc2c(N3CCOCC3)nc(-c3ccc(NC(=O)Nc4ccc(C(=O)N5CCN(C)CC5)cc4)cc3)nc21` , same question.
Ans. active

Qu. For `COc1ccc2c(OCc3nnc4ccc(-c5ccccc5)nn34)ccnc2c1` then?
Ans. inactive

Qu. `CC[C@]12C=CCN3CC[C@@]4(c5cc([C@@]6(C(=O)OC)C[C@H]7C[C@@H](C(C)(F)F)CN(Cc8c6[nH]c6ccccc86)C7)c(OC)cc5N(C)[C@H]4[C@@](O)(C(=O)OC)[C@@H]1OC(C)=O)[C@@H]32` ?
Ans. active

Qu. And what about the molecule `O=C(Nc1cccc(Nc2ncc(Br)c(NCCc3cnc[nH]3)n2)c1)N1CCCC1` ?
Ans. active

Qu. Do the same for `CNC(=O)c1ccc(N2C(=S)N(c3ccc(C#N)c(C(F)(F)F)c3)C(=O)C2(C)C)cc1F` please
Ans. inactive

Qu. What about CC(C)C[C@H](NC(=O)CNC(=O)c1cc(Cl)ccc1Cl)B1OC(=O)CC(CC(=O)O)(C(=O)O)O1 (stereo not given in full) ?
Ans. active

Qu. Input `C#Cc1cccc(Nc2ncnc3cc(OCCOC)c(OCCO)cc23)c1`
Ans. active
